Test system: LMS1 cells
Experiment: MTS cell viability analysis, LMS1
Format: cell-based
Settings: LMS1, MTS, 24 h treatment
Method: MTS analysis was performed using CellTiter96 Aqueous Non-Radioactive Cell Proliferation Assay kit (Promega, Madison, WI, USA) as specified by the manufacturer. Cells were seeded at a density of 5,000 cells per well, and allowed to adhere overnight. Cellular viability was assessed 24 h after treatment with DMSO (control), or 10, 50, or 100 nM verticillin A, and absorbance was measured at 490 nm wavelength. In vitro analyses were performed in triplicate. […]
pEC50: −log10 of the molar value.

Molecule	pEC50
CN1C(=O)C23SSC1(C)C(=O)N2C1Nc2ccccc2C1(C12c4ccccc4NC1N1C(=O)C4(C)SSC1(C(=O)N4C)C2O)C3O (stereo not shown) [verticillin A]	7.97

Recorded values, source paper PMC5295762.
